FYI, the data here is from patent US20210188980A1.

# measured.on: T1, human PD-1 ECD/Fc fusion protein (human)
# T1 construct: also called huPD-1/Fc; HuPD-1 ECD/Fc
# experiment.notes: SPR Biacore, mAb captured, huPD-1/Fc analyte
endpoint.label: koff (s⁻¹)
Lab book: enter the figure in s⁻¹, no units written.

binder | koff / s⁻¹
mAb715 (antibody, V domains shown, murine hybridoma anti-PD-1 mAb) VH: EVMLVESGGGLLKPGGSLKLSCAASGFTFSSYAMSWVRQTPEKRLEWVATISGGGRDTYYPDSVKGRFTISRDNAKNTLYLQMTSLRSEDTAFYYCAGQGGTYLFASWGQGTLVTVSA VL: DIVMTQSHKFMSTSVGDSVTITCKASQDVNTAVAWYQQKPGQPPKVLIYWASTRHTGVPDRFTGSGSGTDYTLTISSVQAEDLALYYCQQHYTTPYTFGGGTKLEIK | 0.000237

stdin: Annotate the binder mAb701 (antibody, V domains shown, murine hybridoma anti-PD-1 mAb) VH: EVLLVESGGGLVKPGGSLKLSCAASGFTFSSYMMSWIRQTPERRLEWVASMSGGGRDTYYPDSVKGRFTISRDNAKNTLYLQMSSLRSEDTALYYCARRGTYAMDYWGQGTSVTVSS VL: DIQMTQSPASQSASLGESVTITCLASQTIGTWLTWYQQKPGKSPQLLIYAATSLADGVPSRFSGSGSGTKFSFKISSLQAEDFVSYYCQQLYSTPWTFGGGTKLEIK with its measured koff.
stdout: 0.000512

stdin: For the binder mAb718 (antibody, V domains shown, murine hybridoma anti-PD-1 mAb) VH: QVQLQQSGAELVRPGASVTLSCKASGYTFTDYEMHWAKQTPVHGLEWIGVIEPESGGTVYNQKFKGKAKLTADKSSRTAYMELRSLTSEDSAVYYCTREGFNSDHYFDYWGQGTTLTVSS VL: DVLMTQTPLSLPVSLGDQASISCRSSQNIVHSNGNTYLEWYLQKPGQSPKLLIYKVFNRFSGVPDRFSGSGSGTDFTLKISRVEAEDLGVYYCFQGSHVPYTFGGGTKLEIK , give its reported koff.
stdout: 0.000283
